Hello, the source for this data is patent US5986103A, in case you need it.

- target.or.test.system: Endothelin A receptor (Rattus norvegicus, UniProt P26684)
- Sequence (P26684 21-426): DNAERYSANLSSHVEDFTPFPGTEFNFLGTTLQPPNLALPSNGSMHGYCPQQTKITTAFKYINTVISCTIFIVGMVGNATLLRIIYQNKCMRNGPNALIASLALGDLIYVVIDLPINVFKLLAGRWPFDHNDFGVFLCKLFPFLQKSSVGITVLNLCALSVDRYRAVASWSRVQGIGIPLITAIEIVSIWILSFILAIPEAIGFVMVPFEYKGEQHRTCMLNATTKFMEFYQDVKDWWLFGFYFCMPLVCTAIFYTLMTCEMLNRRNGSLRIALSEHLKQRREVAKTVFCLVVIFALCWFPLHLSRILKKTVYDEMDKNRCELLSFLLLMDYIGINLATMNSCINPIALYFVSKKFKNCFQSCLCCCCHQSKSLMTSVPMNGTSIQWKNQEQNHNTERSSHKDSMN
pIC50: −log10 of the molar value.
readout.kind: pIC50

INSERT INTO results (compound_smiles, endpoint_value) VALUES
  ('CCCc1nc(Sc2ccc(OCC(=O)O)cc2)c(C(=O)O)n1Cc1cc2c(cc1Cl)OCO2', 8.60),
  ('CC(C)c1nc(Sc2ccc(CCC(=O)O)cc2)c(C(=O)O)n1Cc1cc2c(cc1Cl)OCO2', 8.60);

* * *

- target.or.test.system: Endothelin B receptor (Rattus norvegicus, UniProt P21451)
- Sequence (P21451 27-442): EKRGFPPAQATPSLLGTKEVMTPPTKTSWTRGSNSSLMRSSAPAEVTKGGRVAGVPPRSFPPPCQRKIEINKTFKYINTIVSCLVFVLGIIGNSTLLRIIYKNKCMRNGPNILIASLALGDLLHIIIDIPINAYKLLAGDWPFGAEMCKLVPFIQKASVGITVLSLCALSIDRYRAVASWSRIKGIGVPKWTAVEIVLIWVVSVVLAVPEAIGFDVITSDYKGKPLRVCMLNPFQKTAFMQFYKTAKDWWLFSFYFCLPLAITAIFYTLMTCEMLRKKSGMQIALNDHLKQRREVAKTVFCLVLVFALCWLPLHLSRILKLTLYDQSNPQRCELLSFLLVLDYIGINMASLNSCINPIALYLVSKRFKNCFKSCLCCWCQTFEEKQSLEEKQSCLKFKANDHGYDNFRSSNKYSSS
readout.kind: IC50 (µM)

INSERT INTO assay_data (compound_smiles, endpoint_value) VALUES
  ('CCCc1nc(Sc2ccc(OCC(=O)O)cc2)c(C(=O)O)n1Cc1cc2c(cc1Cl)OCO2', 0.0885),
  ('CC(C)c1nc(Sc2ccc(CCC(=O)O)cc2)c(C(=O)O)n1Cc1cc2c(cc1Cl)OCO2', 0.0784);
